Target: human Cav2.2 (Homo sapiens, UniProt Q00975)
Sequence (Q00975 whole entry): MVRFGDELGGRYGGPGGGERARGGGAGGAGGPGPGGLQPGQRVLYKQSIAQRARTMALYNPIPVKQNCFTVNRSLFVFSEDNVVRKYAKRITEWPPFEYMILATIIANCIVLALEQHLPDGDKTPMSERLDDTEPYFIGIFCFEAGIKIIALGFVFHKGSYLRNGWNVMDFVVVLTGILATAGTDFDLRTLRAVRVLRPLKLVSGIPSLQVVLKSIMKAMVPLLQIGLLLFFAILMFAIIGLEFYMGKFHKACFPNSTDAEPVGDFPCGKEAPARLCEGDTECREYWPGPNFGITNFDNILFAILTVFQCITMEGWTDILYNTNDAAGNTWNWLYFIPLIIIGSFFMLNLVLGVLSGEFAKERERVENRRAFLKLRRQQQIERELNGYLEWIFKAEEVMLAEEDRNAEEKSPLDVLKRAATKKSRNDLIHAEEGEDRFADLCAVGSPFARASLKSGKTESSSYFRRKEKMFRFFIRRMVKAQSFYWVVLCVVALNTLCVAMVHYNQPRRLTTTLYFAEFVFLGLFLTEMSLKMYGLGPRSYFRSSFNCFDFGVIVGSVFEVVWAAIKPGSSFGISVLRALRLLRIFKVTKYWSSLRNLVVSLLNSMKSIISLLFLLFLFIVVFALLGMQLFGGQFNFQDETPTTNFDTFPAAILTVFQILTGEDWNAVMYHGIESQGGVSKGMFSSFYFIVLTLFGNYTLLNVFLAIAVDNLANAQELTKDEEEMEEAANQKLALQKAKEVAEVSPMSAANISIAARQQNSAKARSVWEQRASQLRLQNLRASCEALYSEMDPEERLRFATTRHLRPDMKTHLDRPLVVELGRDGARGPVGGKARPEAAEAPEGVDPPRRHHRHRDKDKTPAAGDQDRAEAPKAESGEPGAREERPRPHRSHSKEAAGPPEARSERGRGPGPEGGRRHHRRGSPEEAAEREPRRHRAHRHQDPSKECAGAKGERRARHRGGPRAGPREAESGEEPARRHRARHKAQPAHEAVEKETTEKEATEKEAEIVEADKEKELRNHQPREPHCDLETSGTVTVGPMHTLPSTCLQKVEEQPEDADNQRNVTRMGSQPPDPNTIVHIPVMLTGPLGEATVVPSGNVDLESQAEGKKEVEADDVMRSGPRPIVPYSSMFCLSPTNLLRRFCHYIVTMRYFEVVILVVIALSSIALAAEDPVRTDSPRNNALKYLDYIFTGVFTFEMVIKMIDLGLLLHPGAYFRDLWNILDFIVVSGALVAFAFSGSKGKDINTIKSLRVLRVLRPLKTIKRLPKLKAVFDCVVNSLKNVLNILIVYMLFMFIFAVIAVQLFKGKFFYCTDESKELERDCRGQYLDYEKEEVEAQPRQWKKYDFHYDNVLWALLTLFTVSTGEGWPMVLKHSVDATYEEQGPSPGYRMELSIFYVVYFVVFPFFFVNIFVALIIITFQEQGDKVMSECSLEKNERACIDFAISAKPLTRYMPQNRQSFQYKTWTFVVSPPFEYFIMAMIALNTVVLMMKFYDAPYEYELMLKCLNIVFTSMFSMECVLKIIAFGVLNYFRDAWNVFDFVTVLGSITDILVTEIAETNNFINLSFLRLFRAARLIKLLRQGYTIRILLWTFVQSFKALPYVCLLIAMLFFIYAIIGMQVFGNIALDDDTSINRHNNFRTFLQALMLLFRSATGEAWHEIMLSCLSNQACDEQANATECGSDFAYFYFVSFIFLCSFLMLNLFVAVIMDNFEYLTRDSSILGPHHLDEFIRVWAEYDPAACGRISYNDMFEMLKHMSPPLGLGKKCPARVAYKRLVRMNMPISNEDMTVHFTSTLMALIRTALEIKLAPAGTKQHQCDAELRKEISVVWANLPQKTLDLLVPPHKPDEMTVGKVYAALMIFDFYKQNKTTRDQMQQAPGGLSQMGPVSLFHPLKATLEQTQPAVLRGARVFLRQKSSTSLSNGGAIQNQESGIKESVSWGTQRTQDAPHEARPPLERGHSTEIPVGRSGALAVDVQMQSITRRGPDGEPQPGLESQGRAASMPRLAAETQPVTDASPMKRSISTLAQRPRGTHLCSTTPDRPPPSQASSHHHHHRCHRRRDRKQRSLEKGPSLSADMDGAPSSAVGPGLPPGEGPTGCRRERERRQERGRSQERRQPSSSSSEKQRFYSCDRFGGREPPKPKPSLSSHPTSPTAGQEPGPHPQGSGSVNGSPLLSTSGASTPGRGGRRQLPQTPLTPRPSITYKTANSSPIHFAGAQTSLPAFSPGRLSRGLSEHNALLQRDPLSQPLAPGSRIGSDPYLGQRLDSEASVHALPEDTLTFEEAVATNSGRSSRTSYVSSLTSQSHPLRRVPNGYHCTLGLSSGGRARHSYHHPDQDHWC
Sequence (P54289 25-956 partner limits assumed): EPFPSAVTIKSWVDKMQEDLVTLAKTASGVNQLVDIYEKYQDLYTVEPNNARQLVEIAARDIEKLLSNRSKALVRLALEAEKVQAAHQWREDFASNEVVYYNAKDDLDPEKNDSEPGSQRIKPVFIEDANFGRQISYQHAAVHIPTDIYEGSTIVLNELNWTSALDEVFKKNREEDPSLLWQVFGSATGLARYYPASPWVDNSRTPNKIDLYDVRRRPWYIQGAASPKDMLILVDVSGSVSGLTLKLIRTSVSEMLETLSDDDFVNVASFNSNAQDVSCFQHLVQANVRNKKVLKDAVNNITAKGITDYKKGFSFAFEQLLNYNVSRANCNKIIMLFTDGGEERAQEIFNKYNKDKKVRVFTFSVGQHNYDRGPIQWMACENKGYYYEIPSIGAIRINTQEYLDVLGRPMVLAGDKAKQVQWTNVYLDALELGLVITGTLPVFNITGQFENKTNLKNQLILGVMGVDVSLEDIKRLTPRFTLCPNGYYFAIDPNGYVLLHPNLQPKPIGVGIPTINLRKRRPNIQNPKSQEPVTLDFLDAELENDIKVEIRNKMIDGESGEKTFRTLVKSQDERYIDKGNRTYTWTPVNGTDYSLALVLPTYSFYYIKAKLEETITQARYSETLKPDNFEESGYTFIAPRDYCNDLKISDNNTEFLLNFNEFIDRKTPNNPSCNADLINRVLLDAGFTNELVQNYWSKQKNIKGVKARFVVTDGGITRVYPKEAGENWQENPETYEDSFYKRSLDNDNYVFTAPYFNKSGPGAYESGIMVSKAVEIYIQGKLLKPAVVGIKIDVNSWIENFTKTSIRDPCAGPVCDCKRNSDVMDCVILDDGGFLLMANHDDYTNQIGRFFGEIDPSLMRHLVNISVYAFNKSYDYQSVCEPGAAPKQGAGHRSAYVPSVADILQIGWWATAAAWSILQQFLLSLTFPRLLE
Sequence (P54289 957-1103 partner limits assumed): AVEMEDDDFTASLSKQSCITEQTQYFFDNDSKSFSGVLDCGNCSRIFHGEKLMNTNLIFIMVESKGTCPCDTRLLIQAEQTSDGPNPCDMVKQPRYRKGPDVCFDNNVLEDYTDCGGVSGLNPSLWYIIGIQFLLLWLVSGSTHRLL
Sequence (P54284 whole entry partner): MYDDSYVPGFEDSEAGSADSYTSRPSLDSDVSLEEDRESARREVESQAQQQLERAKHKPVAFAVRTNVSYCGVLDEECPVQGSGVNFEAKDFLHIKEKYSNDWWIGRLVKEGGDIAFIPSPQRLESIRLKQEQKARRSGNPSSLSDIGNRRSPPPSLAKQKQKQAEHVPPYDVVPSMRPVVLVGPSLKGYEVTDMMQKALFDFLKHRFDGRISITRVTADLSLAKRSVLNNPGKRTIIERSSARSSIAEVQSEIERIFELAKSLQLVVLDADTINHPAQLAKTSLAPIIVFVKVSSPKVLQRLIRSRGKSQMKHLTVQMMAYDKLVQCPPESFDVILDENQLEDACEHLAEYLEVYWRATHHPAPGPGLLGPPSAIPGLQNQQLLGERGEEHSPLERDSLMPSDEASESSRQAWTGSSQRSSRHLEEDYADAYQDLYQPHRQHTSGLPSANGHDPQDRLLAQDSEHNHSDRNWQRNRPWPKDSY
Assay: Assessment of calcium channel activity using FLIPR (Ca2+ influx in IMR32 cells)
Assay type: cell-based
Settings: read-out: IC50 (μM) or percent inhibition (* indicates 3 minute incubation, otherwise 60 minute); IC50; 60 minute pre-incubation with compound; IMR32 cells, 80 mM KCl depolarization
measurement label: IC50 (µM)

Here are 10 compounds together with their reported answers.
| compound | measurement label | val |
| --- | --- | --- |
| CC(C)C(C(=O)N[C@H]1CC[C@@H]2CN(CCCC(c3ccc(F)cc3)c3ccc(F)cc3)C[C@@H]21)c1ccccc1 (some centres unmarked) [Example 118] | IC50 | 1.04 |
| CC(C)C(C(=O)N[C@H]1CC[C@@H]2CN(Cc3ccc(F)cc3)C[C@@H]21)c1ccccc1 (some centres unmarked) [Example 89] | IC50 | 2.01 |
| CC(C)C(C(=O)N[C@H]1CC[C@@H]2CN(Cc3cccc(Cl)c3)C[C@@H]21)c1ccccc1 (some centres unmarked) [Example 86] | IC50 | 1.63 |
| CC(C)C[C@@H](C(=O)N[C@@H]1CC[C@H]2CN(Cc3ccccc3)C[C@H]21)N(C)S(C)(=O)=O [Example 168] | IC50 | 12.9 |
| CCC[C@H](NC)C(=O)N[C@@H]1CC[C@H]2CN(S(=O)(=O)c3ccc(F)cc3)C[C@H]21 [Example 403] | IC50 | 8.65 |
| CC(C)C[C@@H](C(=O)N[C@@H]1CC[C@H]2CN(Cc3cccc(C(F)(F)F)c3)C[C@H]21)N(C)C(=O)C(C)(C)C [Example 176] | IC50 | 0.86 |
| O=C(N[C@@H]1CC[C@H]2CN(CCC(c3ccc(F)cc3)c3ccc(F)cc3)C[C@H]21)C(C1CCCCC1)C1CCCCC1 [Example 80] | IC50 | 1.67 |
| CCC[C@H](N)C(=O)N[C@H]1CC[C@@H]2CN(Cc3ccc(C(F)(F)F)cc3)C[C@@H]21 [Example 382] | IC50 | 14.4 |
| CC(C)C(C(=O)N[C@H]1CC[C@@H]2CN(Cc3ccccc3)C[C@@H]21)c1ccccc1 (some centres unmarked) [Example 35] | IC50 | 3.26 |
| CC(C)C[C@@H](C(=O)N[C@@H]1CC[C@@H]2CN(Cc3ccccc3)C[C@@H]21)N(C)C(=O)OC(C)(C)C [Example 241] | IC50 | 2.08 |

[P] CN[C@@H](CC(C)C)C(=O)N[C@@H]1CC[C@H]2CN(Cc3cccc(C(F)(F)F)c3)C[C@H]21 [Example 166]
[Q] O=C(CCCCC(c1ccc(F)cc1)c1ccc(F)cc1)N[C@@H]1CC[C@H]2CN(Cc3cccc(C(F)(F)F)c3)C[C@H]21 (relative stereo) [Example 140]
[R] CC(C)C[C@H](NS(=O)(=O)CC(C)C)C(=O)N[C@@H]1CC[C@H]2CN(Cc3cccc(C(F)(F)F)c3)C[C@H]21 [Example 173]
[S] CC(C)C[C@H](N)C(=O)N[C@@H]1CC[C@H]2CN(Cc3cccc(C(F)(F)F)c3)C[C@H]21 (relative stereo) [Example 161]
-- ask hey, can you rank those compounds up there by IC50? biggest number first please Provide the ranking by listing each label in its place in the requested order.
-- reply S, P, R, Q
(S: 3.89 µM, P: 2.72 µM, R: 1.81 µM, Q: 0.62 µM)
